Reference source for all entries: ChEMBL document CHEMBL1649285

Tested on: Pseudomonas aeruginosa
Experiment: Antimicrobial activity against Pseudomonas aeruginosa isolate 968 by broth microdilution method
Format: functional
MEASUREMENT_LABEL: MIC

COMPOUND	TARGET_ENTITY	MIC
CO/N=C(\C(=O)N[C@@H]1C(=O)N2C(C(=O)[O-])=C(C[N+]3(C)CCCC3)CS[C@H]12)c1csc(N)n1 [CEFEPIME]	Pseudomonas aeruginosa	32 µg/mL
C[C@@H](O)[C@H]1C(=O)N2C(C(=O)O)=C(S[C@@H]3CN[C@H](C(=O)N(C)C)C3)[C@H](C)[C@H]12 [MEROPENEM]	Pseudomonas aeruginosa	≥ 32 µg/mL

Query: For the compound shown here, C[C@@H](O)[C@H]1C(=O)N2C(C(=O)O)=C(S[C@@H]3CN[C@H](CNS(N)(=O)=O)C3)[C@H](C)[C@H]12 [DORIPENEM] , give the reported MIC.
Response: 16 µg/mL
